# System: Bacillus subtilis
# assay_protocol: Antimicrobial activity against Bacillus subtilis by two-fold serial dilution technique
# Type: functional
I'd appreciate it if you marked entries 1 when MIC is lower than 30 µg/mL and -1 when it is not.

Please review the entries below; each comes with its answer.
compound	classification
Cc1cc(=O)oc2cc(OCC(O)CSc3nc4ccccc4[nH]3)c(OCC(O)CSc3nc4ccccc4[nH]3)cc12 (configuration not stated)	-1
Cc1cc(=O)oc2cc(OCC(O)Cn3nnc4ccccc43)c(OCC(O)Cn3nnc4ccccc43)cc12 (configuration not stated)	-1
Cc1cc(=O)oc2cc(OCC(O)Cn3nnc4ccccc43)ccc12 (configuration not stated)	1

In the following, a different compound is considered.
Req: Dear reviewer, please state whether CCn1cc(C(=O)O)c(=O)c2cc(F)c(N3CCNCC3)cc21 has MIC strictly beneath 30 µg/mL.
Resp: 1
